system: SK-MEL-5 melanoma; experiment: NCI tumour cell line growth inhibition, 48 h; in the data active = GI50 below about 0.43 µM; inactive = the rest
Possible outcomes: active, inactive

* CCN(Cc1ccc(OC)cc1)c1ccc(CO)c(Cl)c1 | inactive
* CC(C)=CCc1cc2c(cc1O)C1=C(C(=O)C3=C(NCCS3(=O)=O)C1=O)C(C=C(C)C)O2 (stereo not drawn) | inactive
* COC(=O)[C@@H](C)C[C@H](Cc1ccccc1)NC(=O)c1nc([C@@H](C[C@H](C(C)C)N(C)C(=O)[C@@H](NC(=O)[C@H]2C[C@H](O)CCN2C)C(C)C)OC(C)=O)sc1C(C)C | active
* CC(C)(C)CC(C)(C)c1ccc(OCCO)cc1 | inactive
* CCC(=C(c1ccc(OCCN2CCCCC2)cc1)c1ccc(OCCN2CCCCC2)cc1)c1ccc(Cl)cc1 | inactive
* CN(C)CCC(N)(P(=O)([O-])[O-])P(=O)([O-])[O-].N.N.[Pt+2] | inactive
* COc1cc(/C=C2\CC3C4CC=C5CC(OC(C)=O)CC[C@]5(C)C4CC[C@]3(C)C2=O)ccc1OCCN1CCCC1 (stereo partly drawn) | inactive
* CCN1CCN(CCC(=O)Nc2cccc(-n3cc(-c4ccncc4)c(-c4ccc(Cl)c(OC)c4)n3)c2)CC1 | inactive
